target: HIV Env, isolate CNE30 (HIV); assay: cell-based or functional assay
Metric: IC80 (µg/ml) with constrains

IC80 (µg/ml) with constrains for PGDM1400 (antibody, V domains shown) VH: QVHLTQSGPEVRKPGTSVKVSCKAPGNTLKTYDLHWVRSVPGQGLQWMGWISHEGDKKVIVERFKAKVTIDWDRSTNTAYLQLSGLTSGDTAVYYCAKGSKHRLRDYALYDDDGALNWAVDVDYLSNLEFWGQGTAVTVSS VL: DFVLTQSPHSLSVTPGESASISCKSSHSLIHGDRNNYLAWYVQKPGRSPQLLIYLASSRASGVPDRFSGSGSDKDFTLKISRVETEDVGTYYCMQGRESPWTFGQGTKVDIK ?
> 100 µg/mL

Check ePGDM9 (antibody, V domains shown) VH: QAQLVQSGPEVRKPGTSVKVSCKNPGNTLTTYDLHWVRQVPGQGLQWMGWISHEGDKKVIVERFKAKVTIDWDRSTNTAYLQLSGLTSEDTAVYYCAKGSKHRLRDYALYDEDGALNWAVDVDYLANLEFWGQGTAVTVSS VL: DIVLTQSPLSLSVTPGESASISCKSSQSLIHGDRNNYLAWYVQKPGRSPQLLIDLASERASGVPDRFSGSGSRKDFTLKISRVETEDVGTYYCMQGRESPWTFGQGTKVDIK too.
> 100 µg/mL

Check ePGDM5 (antibody, V domains shown) VH: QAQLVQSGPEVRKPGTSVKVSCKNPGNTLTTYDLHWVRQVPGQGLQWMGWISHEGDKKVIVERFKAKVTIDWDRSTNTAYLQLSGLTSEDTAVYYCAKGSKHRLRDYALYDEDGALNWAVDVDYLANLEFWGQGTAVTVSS VL: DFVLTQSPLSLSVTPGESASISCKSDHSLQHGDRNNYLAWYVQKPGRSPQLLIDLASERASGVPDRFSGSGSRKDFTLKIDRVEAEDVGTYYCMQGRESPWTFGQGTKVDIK too.
> 100 µg/mL
